System: SR leukemia
Assay notes: NCI-60 one-dose screen, 48 h (100 = growth as untreated, 0 = no growth, -100 = all killed)
Condition info: 10 µM unless noted
The panel holds about 83,000 compounds, 20% with a hit somewhere; the sample as a whole holds those more often.
Label satisfied when growth is strictly below 40%; at or above that, label not satisfied.

Q: Please indicate whether the reported growth of O=C(c1ccccc1)c1ccccc1Cl is strictly below 40%.
A: not satisfied

Q: Hi there! Is growth for O=C(CCc1nnc(Cn2cncn2)o1)c1nc2ccccc2[nH]1 below 40%, do you know?
A: not satisfied

Q: Quick check: growth of COc1ccc(/C=N/NC(=O)c2ccc(S(C)(=O)=O)cc2)cc1OC under 40%?
A: not satisfied

Q: Bench note: check whether Oc1ccc(-c2nn(-c3ccccc3)cc2-c2nc3ccccc3s2)cc1 shows growth below 40%
A: not satisfied

Q: Criterion: growth strictly below 40%. Is it met by COc1ccc(-n2nnc(C(=O)O)c2-c2cc(OC)c(OC)c(OC)c2)cc1 ?
A: not satisfied

Q: is_below(growth, 40%) for O=C(Nc1ccc(OCc2nnc(-c3ccccc3)o2)c(F)c1)Nc1ccc(Cl)c(C(F)(F)F)c1 ?
A: satisfied

Q: Please state whether growth is below 40% for Cc1ccc(NC(=O)COC(=O)c2ccc(S(=O)(=O)N3CCCCCC3)cc2)cc1
A: not satisfied

Q: Does this molecule meet the criterion growth < 40%? CC(C)[O-].CC(C)[O-].CN(CCN(C)Cc1cc(F)cc(F)c1[O-])Cc1cc(F)cc(F)c1[O-].[Ti+4]
A: satisfied

Q: Answer whether the molecule O=C(Nc1ccc(C2=NCCCN2)cc1)Nc1ccc(C2=NCCCN2)cc1 has growth strictly less than 40%
A: not satisfied

Q: In plain terms, does O=C(Nc1cccc([N+](=O)[O-])c1)c1cccc(C(=O)Nc2cccc([N+](=O)[O-])c2)c1 come in under 40% for growth?
A: not satisfied

Q: is_below(growth, 40%) for COc1ccc(-c2cc(Cc3cccs3)c(=O)n(Cn3ccc4ccccc43)n2)cc1 ?
A: not satisfied

Q: Determine if COc1ncc(-c2ccc3nccc(C#CCN4CCN(S(C)(=O)=O)CC4)c3c2)cc1NS(=O)(=O)c1ccc(F)cc1F shows growth strictly lower than 40%.
A: satisfied

Q: Please state whether growth is below 40% for C/C(=C\CCc1ccsc1)CC/C=C(\C)CCCN1CCC(CO)CC1
A: satisfied

Q: Would you kindly verify if growth of Cc1cc(C(C)(C)c2cc(C)c(O)c(CN(C)C)c2)cc(CN(C)C)c1O is strictly less than 40%?
A: not satisfied

Q: Field: below-cutoff. Rule: recorded growth strictly less than 40%. Subject: COc1ccc2c(c1)C(=O)/C(=C/c1ccc([N+](=O)[O-])s1)O2
A: satisfied

Q: Say whether its growth is strictly beneath 40%. Entry: Nc1cc(Cl)c(S(N)(=O)=O)cc1S(N)(=O)=O
A: not satisfied

Q: Record CO[C@H]1/C=C/O[C@@]2(C)Oc3c(C)c(O)c4c(O)c(c(/C=N/N5CCN(C)CC5)c(O)c4c3C2=O)NC(=O)/C(C)=C\C=C\C(C)[C@H](O)[C@@H](C)[C@@H](O)[C@@H](C)[C@@H](OC(C)=O)[C@@H]1C (some centres not stated) : is its growth strictly below 40%?
A: not satisfied

Q: Does this molecule meet the criterion growth < 40%? Nc1ccccc1-c1ccc([N+](=O)[O-])cc1
A: satisfied

Q: Field: below-cutoff. Rule: recorded growth strictly less than 40%. Subject: O=[N+]([O-])c1ccc2c(c1)S(=O)c1cc([N+](=O)[O-])ccc1N2
A: not satisfied

Q: Please let me know if COc1ccc2nc3cc(Cl)ccc3c(N3CCN(c4ccnc(Nc5ccc(F)cc5)n4)CC3)c2c1 shows growth below 40%.
A: not satisfied

Q: hey, is growth for O=C1/C(=C/c2ccc([N+](=O)[O-])s2)Oc2ccc(Br)cc21 lower than 40% or not?
A: satisfied

Q: For O=C(NCCCO)c1cc(Cl)ccc1O , is the recorded growth below the cut-off of 40%?
A: satisfied
